# ASSAY TEXT: Conductivity measurements of transport buffers
# Format: physicochemical
Rule: Measurement 3 (conductivity) below 20 μS/cm gives Yes, anything at or above gives No.

// query Determine whether this compound shows Measurement 3 (conductivity) lower than 20 μS/cm (ties excluded): O=S(=O)(O)CCN1CCN(CCO)CC1
// result Yes

// query And the next one, N[C@@H](CS)C(=O)O ?
// result No

// query Entry to check: [Cl-].[Na+] [1 mM NaCl, NaCl]
// result No

// query Likewise for [Cl-].[Cl-].[Mg+2] [1 mM MgCl2, MgCl2] ?
// result No

// query What do you get for [Cl-].[Cl-].[Mg+2] [0.1 mM MgCl2, MgCl2] ?
// result Yes

// query Please give the result for [Cl-].[Na+] [0.1 mM NaCl, NaCl] too.
// result Yes

// query Next compound up: NC(CO)(CO)CO
// result No

###

# ASSAY TEXT: Conductivity measurements of transport buffers
# Type: physicochemical
Task for the reader: assign each of the following compounds its reported Average/Std. Deviation (conductivity).

// query For O=S(=O)(O)CCN1CCN(CCO)CC1 , what is its reported Average/Std. Deviation (conductivity)?
// result 9.7 +/− 0.71 μS/cm

// query Request: [Cl-].[Cl-].[Mg+2] [0.1 mM MgCl2, MgCl2]
// result 17.3 +/− 0.87 μS/cm

// query Moving on to N[C@@H](CS)C(=O)O
// result 22.7 +/− 5.09 μS/cm

// query Queued: NC(CO)(CO)CO
// result 572 +/− 10.5 μS/cm

// query Try the compound [Cl-].[Na+] [0.1 mM NaCl, NaCl]
// result 9.43 +/− 0.93 μS/cm

// query Also [Cl-].[Na+] [1 mM NaCl, NaCl] , if possible.
// result 112.7 +/− 2.08 μS/cm

// query Field entry: O=C([O-])CCC(=O)[O-].[Na+].[Na+] [5 mM NaSuccinate, NaSuccinate]
// result 1.01 +/− 0.045 mS/cm

// query Can you handle [Cl-].[Cl-].[Mg+2] [1 mM MgCl2, MgCl2] next?
// result 186 +/− 18.8 μS/cm

###

# ASSAY TEXT: Conductivity measurements of transport buffers
# Assay type: physicochemical
I'd appreciate it if you could supply Measurement 1 (conductivity) values for the items below.
Provide only the numeric value, understood in μS/cm.

// query // returns reported Measurement 1 (conductivity) for input [Cl-].[Cl-].[Mg+2] [1 mM MgCl2, MgCl2]
// result 174

// query # iterate: O=S(=O)(O)CCN1CCN(CCO)CC1
// result 9.16

// query Moving on to [Cl-].[Na+] [1 mM NaCl, NaCl]
// result 112

// query Please do the same for [Cl-].[Cl-].[Mg+2] [0.1 mM MgCl2, MgCl2] as well.
// result 16.9

// query NC(CO)(CO)CO , same question.
// result 572

// query Moving on to N[C@@H](CS)C(=O)O
// result 27.4

// query Continue with [Cl-].[Na+] [0.1 mM NaCl, NaCl]
// result 8.80

###

# ASSAY TEXT: Conductivity measurements of transport buffers
# Assay type: physicochemical
For each record, write down the corresponding Measurement 2 (conductivity).
Value expressed in μS/cm; do not type the unit.

// query I am curious: what Measurement 2 (conductivity) value has been reported for [Cl-].[Cl-].[Mg+2] [1 mM MgCl2, MgCl2] ?
// result 208

// query Field entry: [Cl-].[Na+] [0.1 mM NaCl, NaCl]
// result 8.98

// query And O=C([O-])CCC(=O)[O-].[Na+].[Na+] [5 mM NaSuccinate, NaSuccinate] ?
// result 960

// query Check [Cl-].[Cl-].[Mg+2] [0.1 mM MgCl2, MgCl2] too.
// result 16.7

// query Moving on to the next molecule: N[C@@H](CS)C(=O)O [250 mM Cysteine, Cysteine]
// result 17.3

// query Note, next up: NC(CO)(CO)CO [10 mM TRIS, TRIS]
// result 562

// query Similarly, [Cl-].[Na+] [1 mM NaCl, NaCl] ?
// result 115

// query What would you report for O=S(=O)(O)CCN1CCN(CCO)CC1 [25 mM HEPES, HEPES] ?
// result 9.44
